tested on: human coagulation factor XI protein; assay: In vivo activity in human coagulation factor XI model mice (Experimental Example 3), plasma FXI protein by ELISA; conditions: humanized mice, single subcutaneous 5 mg/kg, D14
MEASUREMENT_KIND: Relative inhibition rate (%) of FXI protein
Number only, in %; omit the unit.

Summary for this substance, TD02M02L01: dsRNA ligand conjugate: TD02M02 with L01 (GalNAc) ligand at 3' end of sense strand SEQ ID NO 35; antisense SEQ ID NO 36 (sense GGATGATTTTCTTATATCA; antisense TGATATAAGAAAATCATCCTG; GalNAc L01 ligand at sense 3' end, 2'-OMe/2'-F, pattern not given here) : Relative inhibition rate (%) of FXI protein is 93.5

---

test system: human coagulation factor XI protein; assay: In vivo activity in human coagulation factor XI model mice (Experimental Example 3), plasma FXI protein by ELISA; settings: humanized mice, single subcutaneous 1 mg/kg, D63
MEASUREMENT_KIND: Relative inhibition rate (%) of FXI protein
Number only, in %; omit the unit.

Value (Relative inhibition rate (%) of FXI protein, human coagulation factor XI protein) for record TD01M02L01: siRNA ligand conjugate: TD01M02 with L01 (GalNAc) ligand at 3' end of sense strand SEQ ID NO 31; antisense SEQ ID NO 32 (sense GATCTCCAACTAAAATACT; antisense AGTATTTTAGTTGGAGATCCG; GalNAc L01 ligand at sense 3' end, 2'-OMe/2'-F, pattern not given here) = 44.6

---

Reported Relative inhibition rate (%) of FXI protein values for a set of substances
system: human coagulation factor XI protein; test: In vivo activity in human coagulation factor XI model mice (Experimental Example 3), plasma FXI protein by ELISA; conditions: humanized mice, single subcutaneous 1 mg/kg, D63
Number only, in %; omit the unit.

1. TD01M01L01: siRNA ligand conjugate: TD01M01 with L01 (GalNAc) ligand at 3' end of sense strand SEQ ID NO 29; antisense SEQ ID NO 30 (sense GATCTCCAACTAAAATACT; antisense AGTATTTTAGTTGGAGATCCG; GalNAc L01 ligand at sense 3' end, 2'-OMe/2'-F, pattern not given here) :: 41.3
2. TD02M01L01: siRNA ligand conjugate: TD02M01 with L01 (GalNAc) ligand at 3' end of sense strand SEQ ID NO 33; antisense SEQ ID NO 34 (sense GGATGATTTTCTTATATCA; antisense TGATATAAGAAAATCATCCTG; GalNAc L01 ligand at sense 3' end, 2'-OMe/2'-F, pattern not given here) :: 41.1

Next, consider the following substance.
Value (Relative inhibition rate (%) of FXI protein, human coagulation factor XI protein) for record TD02M02L01: dsRNA ligand conjugate: TD02M02 with L01 (GalNAc) ligand at 3' end of sense strand SEQ ID NO 35; antisense SEQ ID NO 36 (sense GGATGATTTTCTTATATCA; antisense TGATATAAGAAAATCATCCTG; GalNAc L01 ligand at sense 3' end, 2'-OMe/2'-F, pattern not given here) = 47.0

---

test system: human coagulation factor XI protein; experiment: In vivo activity in human coagulation factor XI model mice (Experimental Example 3), plasma FXI protein by ELISA; conditions: humanized mice, single subcutaneous 1 mg/kg, D28
Reported Relative inhibition rate (%) of FXI protein values for a set of substances
Number only, in %; omit the unit.

Recorded Relative inhibition rate (%) of FXI protein, per entry:
1) TD02M01L01: siRNA ligand conjugate: TD02M01 with L01 (GalNAc) ligand at 3' end of sense strand SEQ ID NO 33; antisense SEQ ID NO 34 (sense GGATGATTTTCTTATATCA; antisense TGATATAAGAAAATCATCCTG; GalNAc L01 ligand at sense 3' end, 2'-OMe/2'-F, pattern not given here) :: 49.2
2) TD02M02L01: dsRNA ligand conjugate: TD02M02 with L01 (GalNAc) ligand at 3' end of sense strand SEQ ID NO 35; antisense SEQ ID NO 36 (sense GGATGATTTTCTTATATCA; antisense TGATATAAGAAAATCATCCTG; GalNAc L01 ligand at sense 3' end, 2'-OMe/2'-F, pattern not given here) :: 58.6

Next, consider the following substance.
Value (Relative inhibition rate (%) of FXI protein, human coagulation factor XI protein) for record TD01M01L01: siRNA ligand conjugate: TD01M01 with L01 (GalNAc) ligand at 3' end of sense strand SEQ ID NO 29; antisense SEQ ID NO 30 (sense GATCTCCAACTAAAATACT; antisense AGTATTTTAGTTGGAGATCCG; GalNAc L01 ligand at sense 3' end, 2'-OMe/2'-F, pattern not given here) = 58.6
